// provenance: patent US4415570A

Test system: reversed passive Arthus reaction
experimental.protocol: Reversed passive Arthus reaction (RPAR) inhibition, leakage area of Evans Blue
Format: in vivo, rats
details: Table 2; 200 mg/kg p.o.; number of positive effects out of 4 parts
This listing pairs molecules with measured RPAR Inhibition.
parameter.measured: RPAR Inhibition

molecule	measurement
Nc1nc(NC(=O)c2cccnc2)nc(-c2ccccc2I)n1 [Compound 17]	1/4
Nc1nc(NC(=O)c2cccnc2)nc(-c2cccc(Cl)c2)n1 [Compound 16]	0/4
Nc1nc(NC(=O)c2cccnc2)nc(-c2ccc(Cl)cc2)n1 [Compound 15]	0/4
Nc1nc(NC(=O)c2cccnc2)nc(-c2c(Cl)cccc2Cl)n1 [Compound 14]	0/4
Nc1nc(NC(=O)c2cccnc2)nc(-c2ccccc2)n1 [Compound 13]	0/4
